These data points were gathered from ChEMBL document CHEMBL1136016.

Target: Adenosine receptor A3 (Homo sapiens, UniProt P0DMS8)
Sequence (P0DMS8 whole entry): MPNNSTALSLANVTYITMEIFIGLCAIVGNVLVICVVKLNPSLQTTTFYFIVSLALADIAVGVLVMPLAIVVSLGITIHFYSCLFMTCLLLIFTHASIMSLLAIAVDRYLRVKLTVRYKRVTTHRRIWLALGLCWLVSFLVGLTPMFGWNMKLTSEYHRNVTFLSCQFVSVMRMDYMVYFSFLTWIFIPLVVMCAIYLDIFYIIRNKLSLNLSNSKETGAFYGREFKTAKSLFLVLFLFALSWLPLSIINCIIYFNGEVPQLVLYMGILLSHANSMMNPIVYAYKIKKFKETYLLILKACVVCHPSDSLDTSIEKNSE
Experiment: Displacement of […] from human Adenosine A3 receptor expressed in CHO cells
Format: cell-based
result.type: Ki (nM)
The figure you give is taken to be in nM; do not add the unit.

The molecule listed as Cn1cc2c(nc(NC(=O)Cc3ccccc3)n3nc(-c4ccco4)nc23)n1 has a reported Ki of 0.81

###

Target: Adenosine receptor A2b (Homo sapiens)
Sequence (P29275 whole entry): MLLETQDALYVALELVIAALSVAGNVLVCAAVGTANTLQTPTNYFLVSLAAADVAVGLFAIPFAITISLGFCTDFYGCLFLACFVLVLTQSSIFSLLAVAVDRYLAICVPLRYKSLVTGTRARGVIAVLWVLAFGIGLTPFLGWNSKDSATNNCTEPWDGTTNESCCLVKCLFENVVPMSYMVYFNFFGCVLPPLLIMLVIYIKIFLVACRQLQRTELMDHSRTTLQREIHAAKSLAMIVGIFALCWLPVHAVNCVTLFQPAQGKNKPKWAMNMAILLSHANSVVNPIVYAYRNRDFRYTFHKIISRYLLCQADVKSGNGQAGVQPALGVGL
Experiment: Displacement of [3H]DPCPX from human Adenosine A2B receptor expressed in HEK293 cells; range 37-63
Type: cell-based
result.type: pKi
FYI, pKi means -log10 of a concentration in mol per litre.

Readout pKi for CCn1cc2c(nc(NC(=O)Nc3ccc4c(c3)OCO4)n3nc(-c4ccco4)nc23)n1 , test system Adenosine receptor A2b (Homo sapiens), was 7.32

###

Target: Adenosine receptor A1 (Homo sapiens)
Sequence (P30542 whole entry): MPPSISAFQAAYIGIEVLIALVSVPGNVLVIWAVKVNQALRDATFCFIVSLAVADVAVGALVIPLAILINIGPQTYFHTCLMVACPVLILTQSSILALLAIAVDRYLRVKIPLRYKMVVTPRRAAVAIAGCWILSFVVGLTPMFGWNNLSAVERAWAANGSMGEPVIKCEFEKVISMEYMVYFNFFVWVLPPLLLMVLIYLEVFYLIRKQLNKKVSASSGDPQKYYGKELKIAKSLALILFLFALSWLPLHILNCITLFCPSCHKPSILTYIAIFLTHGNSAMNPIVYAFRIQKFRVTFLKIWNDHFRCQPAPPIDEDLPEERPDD
Experiment: Displacement of [3H]DPCPX from human Adenosine A1 receptor expressed in CHO cells; range 180-345
Assay type: cell-based
result.type: Ki (nM)
Field: numeric (nM). Do not append units.

So, CCCn1cc2c(nc(NC(=O)Nc3ccccc3OC)n3nc(-c4ccco4)nc23)n1 ? Its Ki was 250

###

Biological target: UniProtKB P29274
Assay: Displacement of [3H]SCH-58261 from human Adenosine A2A receptor expressed in CHO cells
Format: cell-based
Recorded measurements of pKi, one per entry
// scale note: pKi = -log10(conc_M); give the bare number

>>> print(df.to_string())
                            chemical_smiles  assay_value
0  CCn1cc2c(nc(NC(=O)Nc3ccc([N+](=O)[O-])cc3)n3nc(-c4ccco4)nc23)n1         6.21
1  Cn1cc2c(nc(NC(=O)Cc3ccccc3)n3nc(-c4ccco4)nc23)n1         6.37
2  CCn1cc2c(nc(NC(=O)Cc3ccccc3)n3nc(-c4ccco4)nc23)n1         6.47
3  CCCn1cc2c(nc(NC(=O)Nc3ccc([N+](=O)[O-])cc3)n3nc(-c4ccco4)nc23)n1         5.95
4  Cn1cc2c(nc(NC(=O)Nc3ccc([N+](=O)[O-])cc3)n3nc(-c4ccco4)nc23)n1         6.16

Would you kindly look at the next entry?
pKi reported for this molecule CCCCn1cc2c(nc(NC(=O)Nc3ccc([N+](=O)[O-])cc3)n3nc(-c4ccco4)nc23)n1 : 6.30

###

Molecular target: Adenosine receptor A3 (Homo sapiens)
Test: Displacement of [3H]MRE3008-F20 from human Adenosine A3 receptor expressed in HEK cells; range 0.61-0.83
Assay type: cell-based, HEK293
result.type: pKi
Keep in mind that pKi stands for -log10 of concentration in molar terms.

Per the records, this compound ( CCCn1cc2c(nc(NC(=O)Nc3ccccc3Cl)n3nc(-c4ccco4)nc23)n1 ) has pKi equal to 9.15

###

Molecular target: Adenosine receptor A3 (Homo sapiens, UniProt P0DMS8)
Test: biochemical
Description: Displacement of [3H]MRE3008-F20 from human Adenosine A3 receptor expressed in HEK cells; range 3.2-4.3
result.type: Ki (nM)
Give the number; nM is assumed, so skip it.

// recorded Ki for CCCCn1cc2c(nc(NC(=O)Nc3ccc(Cl)c(Cl)c3)n3nc(-c4ccco4)nc23)n1 : 3.7

###

Molecular target: Adenosine receptor A2a (Homo sapiens, UniProt P29274)
Sequence (P29274 whole entry): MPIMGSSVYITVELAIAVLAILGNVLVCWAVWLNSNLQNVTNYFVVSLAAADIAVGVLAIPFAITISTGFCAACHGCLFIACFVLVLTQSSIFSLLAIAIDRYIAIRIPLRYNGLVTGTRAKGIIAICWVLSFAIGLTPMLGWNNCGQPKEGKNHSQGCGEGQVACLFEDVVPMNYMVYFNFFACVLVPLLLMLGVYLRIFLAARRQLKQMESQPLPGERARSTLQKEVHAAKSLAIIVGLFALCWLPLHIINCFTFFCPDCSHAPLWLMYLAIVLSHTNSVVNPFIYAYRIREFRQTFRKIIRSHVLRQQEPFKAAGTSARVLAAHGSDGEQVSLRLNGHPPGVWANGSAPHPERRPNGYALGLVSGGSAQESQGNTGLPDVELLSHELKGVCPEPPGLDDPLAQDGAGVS
Assay: Displacement of [3H]SCH-58261 from human Adenosine A2A receptor expressed in HEK293 cells; range 36-70
Assay type: cell-based
result.type: pKi
Entry type: numeric. Quantity: pKi, the -log10 of concentration in molar units.

Response field pKi (Adenosine receptor A2a (Homo sapiens, UniProt P29274)) for item CCCCn1cc2c(nc(NC(=O)Nc3ccc(F)cc3)n3nc(-c4ccco4)nc23)n1 : 7.30
